Value source: the supplement of paper PMC11616607

# Tested on: HOSE1C
# assay explanation: drug sensitivity score (DSS) from 5-point dose-response viability curve (DSS (area-under-curve based score)); higher = more sensitive (stronger growth inhibition or killing); extreme values may be limits of the assay
# experimental setup: exposure time: 72 h; concentration range: 5 concentrations over 10,000-fold range
Record class 1 whenever drug sensitivity score is at 2 or higher; record class 0 when lower.

# compound, cat
data = [
    ("NC(=O)c1cccc2cn(-c3ccc([C@@H]4CCCNC4)cc3)nc12", "class 1"),
    ("Cc1cc(Nc2cc(N3CCN(C)CC3)nc(Sc3ccc(NC(=O)C4CC4)cc3)n2)n[nH]1", "class 1"),
    ("O=C(c1cccc(Cl)c1F)N1CCN(Cc2cccc(Nc3nccs3)n2)CC1", "class 1"),
    ("O=C(/C=C\\n1cnc(-c2cc(C(F)(F)F)cc(C(F)(F)F)c2)n1)NNc1cnccn1 [Selinexor]", "class 1"),
    ("CN(C)c1cc2c(cc1Sc1nc3c(N)nccc3n1CCNCC(C)(C)C)OCO2", "class 1"),
    ("C[C@@H]1CN(Cc2ccc(F)cc2)[C@@H](C)CN1C(=O)c1cc2c(C(=O)C(=O)N(C)C)cn(C)c2cc1Cl", "class 0"),
]
